Entries and their measured cAMP Rel. A (%) against human GIP, human GIP R cells follow.
- SUBJECT OF TEST: T1, human GIP receptor (human, UniProt P48546 22-466)
- T1 sequence (looked up): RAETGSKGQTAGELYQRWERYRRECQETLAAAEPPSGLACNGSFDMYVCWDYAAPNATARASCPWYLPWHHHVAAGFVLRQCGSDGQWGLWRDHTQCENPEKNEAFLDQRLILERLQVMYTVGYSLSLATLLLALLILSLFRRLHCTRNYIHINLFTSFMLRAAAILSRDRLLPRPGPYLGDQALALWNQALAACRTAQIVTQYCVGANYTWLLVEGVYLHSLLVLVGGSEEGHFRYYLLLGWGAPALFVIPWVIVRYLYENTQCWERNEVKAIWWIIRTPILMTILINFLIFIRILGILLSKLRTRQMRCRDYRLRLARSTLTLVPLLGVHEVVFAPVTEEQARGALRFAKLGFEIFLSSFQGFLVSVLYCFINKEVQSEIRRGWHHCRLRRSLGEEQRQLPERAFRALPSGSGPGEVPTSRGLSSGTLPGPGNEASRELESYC
- METHOD SUMMARY: cell-based or functional assay
Dear colleague, please return just the value in %, with no unit written.

Use the examples below as a reference point.
{"BINDER": "YXQGTXTSDYSIFLDKKAQXAFIEYLLESXPSSGAPPXS (Aib at 2; αMeF at 6; Lys 17 side chain AEEAc-AEEAc-γGlu-CO(CH2)18COOH; Aib at 20; Aib at 30; Ac3c at 38; C-terminal amide (NH2)) [Compound 29]", "NUMERIC RESULT": 58.6}
{"BINDER": "YXQGTXTSDYSIXLDKKAQXAFIEFLLETXPSSGAPPXS (Aib at 2; αMeF at 6; αMeL at 13; Lys 17 side chain AEEAc-AEEAc-γGlu-CO(CH2)18COOH; Aib at 20; Aib at 30; Ac3c at 38; C-terminal amide (NH2)) [Compound 30]", "NUMERIC RESULT": 1210}
{"BINDER": "YXQGTXTSDYSIXLDKKAQXAFIEYLLETGPSSGQPPXS (Aib at 2; αMeF(2F) at 6; αMeL at 13; Lys 17 side chain AEEAc-AEEAc-γGlu-CO(CH2)18COOH; Aib at 20; Ac3c at 38; C-terminal amide (NH2)) [Compound 34]", "NUMERIC RESULT": 3620}
{"BINDER": "YXQGTXTSDYSIFLDKKAQXAFIEFLLESHPSSGAPPPS (Aib at 2; αMeF at 6; Lys 17 side chain AEEAc-AEEAc-γGlu-CO(CH2)18COOH; Aib at 20; C-terminal amide (NH2)) [Compound 15]", "NUMERIC RESULT": 548}
{"BINDER": "YXQGTXTSDYSIFLDKKAQXAFIEYLLETGPSSGAPPPS (Aib at 2; αMeF(2F) at 6; Lys 17 side chain AEEAc-AEEAc-γGlu-CO(CH2)18COOH; Aib at 20; C-terminal amide (NH2)) [Compound 17]", "NUMERIC RESULT": 953}

Challenge: I'd like to know its cAMP Rel. A (%) against human GIP, human GIP R cells. The binder in question is YXQGTXTSDYSIXLDKKAQXAFIEYLLESHPSSGAPPPS (Aib at 2; αMeF at 6; αMeF at 13; Lys 17 side chain AEEAc-AEEAc-γGlu-CO(CH2)18COOH; Aib at 20; C-terminal amide (NH2)) [Compound 27]
Response given: 787

Challenge: Quick check: cAMP Rel. A (%) against human GIP, human GIP R cells of YXQGTXTSDYSIXLDKKAQXAFIEYLLETGPSSGXPPPS (Aib at 2; αMeF at 6; αMeL at 13; Lys 17 side chain AEEAc-AEEAc-γGlu-CO(CH2)18COOH; Aib at 20; Aib at 35; C-terminal amide (NH2)) [Compound 7] ?
Response given: 1390
